B1: WT His6-MutL, full length [E. coli] / WT MutS, full length [E. coli] (parent)
chain 1: MPIQVLPPQLANQIAAGEVVERPASVVKELVENSLDAGATRIDIDIERGGAKLIRIRDNGCGIKKDELALALARHATSKIASLDDLEAIISLGFRGEALASISSVSRLTLTSRTAEQQEAWQAYAEGRDMNVTVKPAAHPVGTTLEVLDLFYNTPARRKFLRTEKTEFNHIDEIIRRIALARFDVTINLSHNGKIVRQYRAVPEGGQKERRLGAICGTAFLEQALAIEWQHGDLTLRGWVADPNHTTPALAEIQYCYVNGRMMRDRLINHAIRQACEDKLGADQQPAFVLYLEIDPHQVDVNVHPAKHEVRFHQSRLVHDFIYQGVLSVLQQQLETPLPLDDEPQPAPRSIPENRVAAGRNHFAEPAAREPVAPRYTPAPASGSRPAAPWPNAQPGYQKQQGEVYRQLLQTPAPMQKLKAPEPQEPALAANSQSFGRVLTIVHSDCALLERDGNISLLSLPVAERWLRQAQLTPGEAPVCAQPLLIPLRLKVSAEEKSALEKAQSALAELGIDFQSDAQHVTIRAVPLPLRQQNLQILIPELIGYLAKQSVFEPGNIAQWIARNLMSEHAQWSMAQAITLLADVERLCPQLVKTPPGGLLQSVDLHPAIKALKDE
chain 2: MSAIENFDAHTPMMQQYLRLKAQHPEILLFYRMGDFYELFYDDAKRASQLLDISLTKRGASAGEPIPMAGIPYHAVENYLAKLVNQGESVAICEQIGDPATSKGPVERKVVRIVTPGTISDEALLQERQDNLLAAIWQDSKGFGYATLDISSGRFRLSEPADRETMAAELQRTNPAELLYAEDFAEMSLIEGRRGLRRRPLWEFEIDTARQQLNLQFGTRDLVGFGVENAPRGLCAAGCLLQYAKDTQRTTLPHIRSITMEREQDSIIMDAATRRNLEITQNLAGGAENTLASVLDCTVTPMGSRMLKRWLHMPVRDTRVLLERQQTIGALQDFTAGLQPVLRQVGDLERILARLALRTARPRDLARMRHAFQQLPELRAQLETVDSAPVQALREKMGEFAELRDLLERAIIDTPPVLVRDGGVIASGYNEELDEWRALADGATDYLERLEVRERERTGLDTLKVGFNAVHGYYIQISRGQSHLAPINYMRRQTLKNAERYIIPELKEYEDKVLTSKGKALALEKQLYEELFDLLLPHLEALQQSASALAELDVLVNLAERAYTLNYTCPTFIDKPGIRITEGRHPVVEQVLNEPFIANPLNLSPQRRMLIITGPNMGGKSTYMRQTALIALMAYIGSYVPAQKVEIGPIDRIFTRVGAADDLASGRSTFMVEMTETANILHNATEYSLVLMDEIGRGTSTYDGLSLAWACAENLANKIKALTLFATHYFELTQLPEKMEGVANVHLDALEHGDTIAFMHSVQDGAASKSYGLAVAALAGVPKEVIKRARQKLRELESISPNAAATQVDGTQMSLLSVPEETSPAVEALENLDPDSLTPRQALEWIYRLKSLV

- Variants of: B1
- protocol-summary: SPR
- measurement-parameters: with WT MutS, MutS sliding clamps pre-formed on 100-bp end-blocked DNA in the presence of ATP, value read at the highest MutL concentration (last point, est. about 5,000 …), read off a plot
Quick reference for response among some variants

>  <variant-name>
chain 1 K52C

>  <response (%)>
13

$$$$
>  <variant-name>
chain 1 A138E

>  <response (%)>
11

$$$$
>  <variant-name>
chain 1 R55D R57D A138E H139A

>  <response (%)>
-1

$$$$
>  <variant-name>
chain 1 R55D R57D

>  <response (%)>
-7

$$$$
>  <variant-name>
chain 1 A138E H139A

>  <response (%)>
3

$$$$
